test.system: recombinant CK2A1 (Homo sapiens, UniProt P68400)
Construct: purchased Invitrogen
Sequence (P68400 whole entry): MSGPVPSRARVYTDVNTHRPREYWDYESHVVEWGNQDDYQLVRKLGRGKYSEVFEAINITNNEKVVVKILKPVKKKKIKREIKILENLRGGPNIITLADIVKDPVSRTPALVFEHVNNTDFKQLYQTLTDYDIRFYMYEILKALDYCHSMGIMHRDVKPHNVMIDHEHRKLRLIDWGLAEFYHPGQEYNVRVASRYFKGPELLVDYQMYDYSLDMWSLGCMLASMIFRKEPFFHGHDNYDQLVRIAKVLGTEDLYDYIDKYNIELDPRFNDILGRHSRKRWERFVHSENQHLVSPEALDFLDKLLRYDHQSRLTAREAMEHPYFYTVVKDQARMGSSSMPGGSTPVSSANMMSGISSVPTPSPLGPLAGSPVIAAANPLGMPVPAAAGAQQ
assay.name: CK2 kinase assay (CK2A1), [γ-33P]ATP filter-binding
Type: biochemical
study.conditions: recombinant CK2A1 10 nM, ATP 25 μM, 10 μM peptide substrate, 30° C. 1 h
Protocol: The effectiveness of compounds of the present invention as inhibitors of protein kinases can be readily tested by assays known to those skilled in the art. For example, in vitro protein kinase assays may be conducted with a relevant purified protein kinase and an appropriate synthetic substrate to determine the inhibitory activities of the compounds. […] Incorporation of radioactive phosphate into the peptide substrate was determined by liquid scintillation counting. […]
Quick reference: pIC50 of the listed items.
In textbook form, pIC50 equals minus log to base ten of the concentration in mol/L.

Illustrative cases are given below, each with its answer.
compound	endpoint.result
N[C@H](Cc1cccnc1)C(=O)N[C@H]1CC[C@H](Nc2cc(NC3CC3)c3ncc(C(=O)Nc4ccnc(Cl)c4)n3n2)CC1 [Example 202]	8.02
O=C(Nc1ccnc(Cl)c1)c1cnc2c(NC3CC3)cc(N[C@H]3CC[C@H](NCCO)CC3)nn12 [Example 531]	7.55
N[C@H]1CC[C@H](Nc2cc(NC3CC3)c3ncc(C(=O)Nc4ccncc4)n3n2)CC1 [Example 390]	7.82

In: Requested read-out: pIC50. Entry: O=C(Nc1ccnc(F)c1)c1cnc2c(NC3CC3)cc(N[C@H]3CC[C@H](O)CC3)nn12 [Example 13]
Out: 7.38

In: Requested read-out: pIC50. Entry: NCC(=O)N[C@H]1CC[C@H](Nc2cc(NC3CC3)c3ncc(C(=O)Nc4ccnc(Cl)c4)n3n2)CC1 [Example 163]
Out: 7.53

In: Requested read-out: pIC50. Entry: CNC(C)(C)C(=O)N[C@H]1CC[C@H](Nc2cc(NC3CC3)c3ncc(C(=O)Nc4ccnc(Cl)c4)n3n2)CC1 [Example 159]
Out: 7.47

In: Requested read-out: pIC50. Entry: C[C@H](CN)C(=O)N[C@H]1CC[C@H](Nc2cc(NC3CC3)c3ncc(C(=O)Nc4ccnc(Cl)c4)n3n2)CC1 [Example 146]
Out: 7.59

In: Requested read-out: pIC50. Entry: O=C(Nc1ccnc(Cl)c1)c1cnc2c(NC3CC3)cc(N[C@H]3CC[C@H](N(CCO)CCO)CC3)nn12 [Example 534]
Out: 6.25

In: Requested read-out: pIC50. Entry: COCC(=O)N[C@H]1CC[C@H](Nc2cc(NC3CC3)c3ncc(C(=O)Nc4ccnc(Cl)c4)n3n2)CC1 [Example 167]
Out: 7.58

In: Requested read-out: pIC50. Entry: N[C@H]1CC[C@H](Nc2cc(Nc3ccc(CN4CCOCC4)cc3)c3ncc(C(=O)Nc4ccncc4)n3n2)CC1 [Example 414]
Out: 6.94

In: Requested read-out: pIC50. Entry: C[C@@H](O)CC(=O)N[C@H]1CC[C@H](Nc2cc(NC3CC3)c3ncc(C(=O)Nc4ccnc(Cl)c4)n3n2)CC1 [Example 195]
Out: 7.76

In: Requested read-out: pIC50. Entry: C[C@@H](N)C(=O)N[C@H]1CC[C@H](Nc2cc(Nc3ccccn3)c3ncc(C(=O)Nc4ccncc4F)n3n2)CC1 [Example 6]
Out: 7.96

In: Requested read-out: pIC50. Entry: N[C@@H](C(=O)N[C@H]1CC[C@H](Nc2cc(NC3CC3)c3ncc(C(=O)Nc4ccnc(Cl)c4)n3n2)CC1)c1ccccc1 [Example 172]
Out: 7.43

In: Requested read-out: pIC50. Entry: O=C(Nc1ccnc(Cl)c1)c1cnc2c(Nc3ccon3)cc(N[C@H]3CC[C@H](O)CC3)nn12 [Example 549]
Out: 7.58

All values here come from patent US8389527B2.
